- systemName: UniProtKB Q8AA96
- Sequence (Q8AA96 whole entry, change not shown): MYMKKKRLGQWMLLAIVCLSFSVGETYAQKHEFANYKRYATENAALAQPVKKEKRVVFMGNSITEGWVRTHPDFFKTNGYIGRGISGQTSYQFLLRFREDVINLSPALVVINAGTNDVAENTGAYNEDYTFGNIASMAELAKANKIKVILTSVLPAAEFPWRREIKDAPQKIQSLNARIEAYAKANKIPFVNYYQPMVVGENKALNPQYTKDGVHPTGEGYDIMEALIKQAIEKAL
- experimentalProtocol: The drug is tested on Bacteroides thetaiotaomicron strain: VPI-5482 for biotransformation. The drug concentrations were measured before and after a 12-h incubation by liquid-chromatography-coupled mass spectrometry (LC–MS)
- Assay type: ADME
- Set-up: dose 2 uM
- conditionParameters: 2 µM
measurementName: Bacterial Biotransformation

C#C[C@]1(O)CC[C@H]2[C@@H]3CCC4=CC(=O)CC[C@@H]4[C@H]3CC[C@@]21CC [LEVONORGESTREL] :: Compound NOT metabolized
CCS(=O)(=O)CCn1c([N+](=O)[O-])cnc1C [TINIDAZOLE] :: Compound NOT metabolized

From: ChEMBL document CHEMBL5303573
